# TARGET_DESC: T1, integrin αvβ3, purified from human placenta (human, UniProt P06756 31-1048; P05106 27-788)
# T1 construct: mature; Native heterodimer, immobilized on ELISA plates or on the BIAcore chip; biotinylated in capture lift and capture ELISA screens; also called αvβ3 receptor; vitronectin receptor
# PROCEDURE_SUMMARY: SPR (BIAcore), purified Fab over immobilized αvβ3
ASSAY_METRIC: kon
Please state the value followed by its unit.

Give its kon value. Item: LM609 grafted antibody combinatorial clone V357D (Fab, V domains shown, Fab; V357D is a clone name, not a substitution) VH: QVQLVESGGGVVQPGRSLRLSCAASGFTFSSYDMSWVRQAPGKGLEWVAKVSSGGGSTYYLDTVQGRFTISRDNSKNTLYLQMNSLRAEDTAVYYCARHNYGSFADWGQGTTVTVSS VL: EIVLTQSPATLSLSPGERATLSCQASQSISNFLHWYQQRPGQAPRLLIRYRSQSISGIPARFSGSGSGTDFTLTISSLEPEDFAVYYCQQSGSWPHTFGGGTKVEIK
279000 M⁻¹ s⁻¹

Same question, LM609 grafted antibody combinatorial clone 6G1 (Fab, V domains shown, Fab) VH: QVQLVESGGGVVQPGRSLRLSCAASGFTFSSYDMSWVRQAPGKGLEWVAKVSSGGGSTYYPDTVQGRFTISRDNSKNTLYLQMNSLRAEDTAVYYCARHNYGSFASWGQGTTVTVSS VL: EIVLTQSPATLSLSPGERATLSCQASQSISNHLHWYQQRPGQAPRLLIRYRSQSISGIPARFSGSGSGTDFTLTISSLEPEDFAVYYCQQSGSWPLTFGGGTKVEIK this time
389000 M⁻¹ s⁻¹

Every entry's value here was drawn from patent US20060204492A1.
